B1: LINE1-full (parent)
chain: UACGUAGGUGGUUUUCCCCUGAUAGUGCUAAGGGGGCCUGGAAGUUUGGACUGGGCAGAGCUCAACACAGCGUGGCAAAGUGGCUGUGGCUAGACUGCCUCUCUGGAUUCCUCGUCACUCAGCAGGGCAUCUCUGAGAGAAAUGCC

- Variants of: B1
- Protocol Summary: self-cleavage, relative activity (ratio to wild type); higher = more cleavage; in vitro, sequencing; the parent is a self-cleaving ribozyme
Classify as follows. Reported self-cleavage greater than or equal to 1: True. Reported self-cleavage below: False.

    variant_description  group_label
 0           C84A A136U        False
 1             U9C G80A         True
 2           A43G U102C         True
 3            C51U G89U        False
 4          U132A G144A         True
 5           U15C A121U         True
 6           U46G A117U         True
 7           U13G U119A         True
 8            G34C G82A         True
 9            U47C C71A        False
10            C37G A79G        False
11            A59G A67G        False
12           A77U U108G         True
13             C3A A77G         True
14           A64G A136U        False
15          A117U A129U         True
16            A42G G93A        False
17            U13C U26A        False
